Consider the following molecules and their measured cell viability readings.
# Test system: MOLM14
# TEST METHOD NOTES: cell viability relative to vehicle control; higher = less cytotoxic;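 further: after 48 h exposure read by CellTiter-Glo luminescence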
# RUN CONDITIONS: 10 µM; SRSF2 genotype: SRSF2 wt/wt
Structures can show the parent of a compound that is named as a salt.
Please answer using the number first and the unit second.

Illustrative cases are given below, each with its answer.
{"columns": ["MOLECULE", "EXPERIMENTAL TARGET", "cell viability"],
 "data": [
  ["COC(=O)N1CCN(Cc2cccc(NC(=O)Nc3ccc(C)nc3)c2F)CC1", "MOLM14", "99.9%"],
  ["CCCCCCCCCCCCCCCCO", "MOLM14", "103%"],
  ["COc1ccc2ccc(=O)oc2c1CC=C(C)C", "MOLM14", "94.3%"]
]}

Looking up Cc1ccc(-c2csc(NC(=O)c3ccccc3)n2)c(C)c1 , I found its cell viability recorded as 92.7%

For record NS(=O)(=O)c1ccccc1 [Benzenesulfonamide] the listed cell viability is 106%

cell viability reported for this molecule O=c1cc(-c2cccc3c2Sc2ccccc2S3)oc(N2CCOCC2)c1 : 95.5%

Recorded result, O=C(c1ccc(OCCCc2c[nH]cn2)cc1)C1CC1 [Ciproxifan Maleate] , cell viability: 93.9%

In plain terms, CCn1cc(-c2ccnc3[nH]c(-c4cccc(CN(C)C)c4)cc23)c(-c2ccc(NC(=O)N(C)C)cc2)n1 has a documented cell viability of 2.96%

Value of measured cell viability for the entry COC(=O)Nc1nc2cc([S+]([O-])c3ccccc3)ccc2[nH]1 (configuration not stated) : 70.4%

Kindly note the recorded cell viability for O=C(O)c1cc2cccc([N+](=O)[O-])c2[nH]1 , which is 101%

cell viability reading for CC(=O)CCC=C(C)CCC=C(C)CCC=C(C)CCC=C(C)C : 96.5%

Field cell viability (entry CCN1CCN(Cc2ccc(C(=O)Nc3ccc(C)c(Oc4ccc5c(c4)CC(=O)N5)c3)cc2C(F)(F)F)CC1 ) reads 45%

###

// reported cell viability for each item listed
# Tested on: OCI-AML2
# TEST METHOD NOTES: cell viability relative to vehicle control; higher = less cytotoxic
# RUN CONDITIONS: 10 µM; SRSF2 genotype: P95H/wt
Counter-ions that a name gives are not always drawn.
Write the value in % as a bare number.

{"columns": ["MOLECULE", "cell viability [%]"],
 "data": [
  ["CC12CCC(CC1)C(C)(C)O2", 102],
  ["O=C(Nc1c(Cl)cncc1Cl)c1ccc(OC(F)F)c(OCC2CC2)c1", 103],
  ["Nc1c(CC(=O)O)cccc1C(=O)c1ccc(Br)cc1 [Bromfenac Sodium]", 107],
  ["Cc1cc(C)nc(NS(=O)(=O)c2ccc(N)cc2)n1 [Sulfamethazine Sodium Salt]", 88.5],
  ["Clc1ccc2c(c1)CCc1cccnc1C2=C1CCNCC1", 94.8],
  ["Oc1c(Cl)cc(Cl)c2cccnc12", 1.78],
  ["C#C[C@]1(O)CC[C@H]2[C@@H]3CCc4cc(O)ccc4[C@H]3CC[C@@]21C", 79.3],
  ["Cc1onc(-c2ccccc2Cl)c1C(=O)N[C@@H]1C(=O)N2[C@@H]1SC(C)(C)[C@@H]2C(=O)O [Cloxacillin sodium]", 105],
  ["O=C1NC(=NCc2cccs2)S/C1=C\\c1ccc2ncccc2c1", 53.8],
  ["NC(=O)c1cccc2[nH]c(-c3ccc(C4CCCN4)cc3F)nc12 (stereo unspecified)", 47.9]
]}

Looking up CC1=C(C(=O)OC(C)C)C(c2cccc([N+](=O)[O-])c2)C(C(=O)OC2CN(C(c3ccccc3)c3ccccc3)C2)=C(N)N1 (stereo unspecified) , I found its cell viability recorded as 71.3

// O=C(OC[C@H]1O[C@@H](OC(=O)c2cc(O)c(O)c(OC(=O)c3cc(O)c(O)c(O)c3)c2)[C@H](OC(=O)c2cc(O)c(O)c(OC(=O)c3cc(O)c(O)c(O)c3)c2)[C@@H](OC(=O)c2cc(O)c(O)c(OC(=O)c3cc(O)c(O)c(O)c3)c2)[C@@H]1OC(=O)c1cc(O)c(O)c(OC(=O)c2cc(O)c(O)c(O)c2)c1)c1cc(O)c(O)c(OC(=O)c2cc(O)c(O)c(O)c2)c1 : cell viability value = 106

###

# System: MOLM14
# TEST METHOD NOTES: cell viability relative to vehicle control; higher = less cytotoxic
# RUN CONDITIONS: 10 µM; SRSF2 genotype: SRSF2 wt/wt
Where a name gives a salt, the structure may show the parent alone.
cell viability strictly under 90% means true (1); at 90% or over means false (0).

{"columns": ["MOLECULE", "ASSIGNED CLASS"],
 "data": [
  ["Cc1cc(N2CCOCC2)ccc1Nc1nc(NC2CCCCC2)c2[nH]cnc2n1", "true (1)"],
  ["O=C(O)COc1nn(Cc2ccccc2)c2ccccc12 [Bendazac]", "false (0)"],
  ["CCN(CC)CC(=O)Oc1ccc(NC(C)=O)cc1 [Propacetamol hydrochloride]", "false (0)"],
  ["COC(=O)C1=CO[C@@H](O[C@@H]2O[C@H](CO)[C@@H](O)[C@H](O)[C@H]2O)[C@@H]2[C@@]3(C)O[C@H]3[C@@H](O)[C@]12O [Sesamoside]", "false (0)"]
]}

Please check: cell viability for CCN(CC)CCCC(C)Nc1c2ccc(Cl)cc2nc2ccc(OC)cc12 (centres undefined) [Quinacrine Dihydrochloride Dihydrate] , strictly under 90% or not?
true (1)

Would you kindly verify if cell viability of OCc1cc(C(O)CNCCCCCCOCCCCc2ccccc2)ccc1O (centres undefined) [Salmeterol] is strictly less than 90%?
true (1)

Dear reviewer, please state whether C/C(=C\C(=O)Nc1ccccc1C(=O)O)c1ccc2ccccc2c1 has cell viability strictly beneath 90%.
false (0)

Does the reported cell viability of OC[C@H]1O[C@@H](Oc2c(O)cc(O)cc2/C=C/c2ccc(O)cc2)[C@H](O)[C@@H](O)[C@@H]1O [Astragalus polyphenols] stay below 90%?
true (1)

###

A collection of molecules and their measured cell viability
# Test system: MOLM14
# TEST METHOD NOTES: cell viability relative to vehicle control; higher = less cytotoxic
# RUN CONDITIONS: 10 µM; SRSF2 genotype: SRSF2 wt/wt
Structures can show the parent of a compound that is named as a salt.
Could you write the number and then its unit?

Some molecules with recorded cell viability:
{"columns": ["MOLECULE", "cell viability"],
 "data": [
  ["O=C1N=C(O)NC1(c1ccccc1)c1ccccc1 [Phenytoin sodium (Dilantin)]", "102%"],
  ["CC1=NN(c2ccccc2)C(=O)C1", "109%"],
  ["N#CC(=Cc1ccc(O)c(O)c1)C(=O)NCc1ccccc1", "103%"],
  ["CCCCCCC=CCCCCCCCc1cccc(O)c1C(=O)O", "107%"],
  ["CS(=O)(=O)c1cccc(C[C@H](NC(=O)c2c(Cl)cc3c(c2Cl)CCN(C(=O)c2ccc4ccoc4c2)C3)C(=O)O)c1", "96.6%"],
  ["NCC(=O)CCC(=O)O [5-Aminolevulinic acid hydrochloride]", "105%"],
  ["COc1cc2nccc(Oc3ccc(NC(=O)c4cn(C(C)C)c(=O)n(-c5ccc(F)cc5)c4=O)cc3F)c2cc1OC", "43.7%"],
  ["CN(C)C(=O)[C@H](O)[C@H](Cc1ccccc1)NC(=O)c1cc2cc(Cl)ccc2[nH]1", "104%"]
]}

response.value for COc1ccc(-c2cc(=O)c3c(O)cc(O)cc3o2)cc1 (field: cell viability) = 107%

Measured cell viability, Cc1cc(Nc2ncc3c(n2)N(C)C(=O)N(c2cc(NC(=O)c4cccc(C(F)(F)F)c4)ccc2C)C3)n(C)n1 [Pluripotin (SC1)] : 7.23%

###

# key: entry, value: cell viability
# Test system: OCI-AML2
# TEST METHOD NOTES: cell viability relative to vehicle control; higher = less cytotoxic
# RUN CONDITIONS: 10 µM; SRSF2 genotype: P95H/wt
Structures can show the parent of a compound that is named as a salt.
Give the number; % is assumed, so skip it.

# CCCOc1ccc2[nH]c(NC(=O)OC)nc2c1 with OCI-AML2: cell viability is 4.68

The compound O=C(O)C1=CO[C@@H](O[C@@H]2O[C@H](CO)[C@@H](O)[C@H](O)[C@H]2O)[C@H]2[C@@H]1C=C[C@]2(O)CO , when measured on OCI-AML2, yielded cell viability of 90.7

Reading of cell viability for CS(=O)(=O)c1ccc([C@@H](O)[C@@H](CO)NC(=O)C(Cl)Cl)cc1 with OCI-AML2: 97.3

Test item Cc1ccc(NC(=O)c2cccc(C(C)(C)C#N)c2)cc1Nc1ccc2ncn(C)c(=O)c2c1 ; OCI-AML2; reported cell viability was 42.7

# lookup: Cc1cc(C(C)(C)C)cc(C)c1CC1=NCCN1 [Xylometazoline HCl] on OCI-AML2, cell viability = 93.4

The measured cell viability that Cc1cc(NS(=O)(=O)c2ccc(N)cc2)no1 [Sulfamethoxazole sodium] showed for OCI-AML2 is 93.1

Record CC/C(=C(/c1ccc(/C=C/C(=O)O)cc1)c1ccc2[nH]ncc2c1)c1ccc(F)cc1Cl has OCI-AML2 cell viability equal to 96.9
